# assay: Rate of model dipeptide cleavage in PBS (HPLC / LC-MS)
# run_parameters: buffer
Where a SMILES comes first, the peptide text is derived from it. [ ]: non-standard residue; d: D form. Sar = CNCC(=O)O
Grouping rule (half-life at 1 mg/ml): lo (below 20 h), med (20 h to below 70 h), hi (70 h or more)

Worked set:
C[C@@H](O)[C@H](NC(=O)CNC(=O)[C@H](CCCNC(=N)N)NC(=O)[C@H](CO)NC(=O)[C@H](Cc1c[nH]cn1)NC(=O)CN(C)C(=O)C(C)(C)N)C(=O)N[C@@H](Cc1ccccc1)C(N)=O [Compound 24] | lo
C[C@@H](O)[C@H](NC(=O)CNC(=O)[C@H](CCCNC(=N)N)NC(=O)[C@H](CO)NC(=O)[C@H](Cc1c[nH]cn1)NC(=O)CN(C)C(=O)CN)C(=O)N[C@@H](Cc1ccccc1)C(N)=O [Compound 27] (H-G[Sar]HSRGTF-NH2) | hi
C[C@@H](O)[C@H](NC(=O)CNC(=O)[C@H](CCCNC(=N)N)NC(=O)[C@H](CO)NC(=O)[C@H](Cc1c[nH]cn1)NC(=O)CN(C)C(=O)[C@@H](N)CCCCN)C(=O)N[C@@H](Cc1ccccc1)C(N)=O [peptide A, Lys-Sar-HSRGTF-NH2] | lo
CCCCCCN(CC(=O)N[C@@H](Cc1c[nH]cn1)C(=O)N[C@@H](CO)C(=O)N[C@@H](CCCNC(=N)N)C(=O)NCC(=O)N[C@H](C(=O)N[C@@H](Cc1ccccc1)C(N)=O)[C@@H](C)O)C(=O)C(C)(C)N [Compound 25] | lo
C[C@@H](O)[C@H](NC(=O)CNC(=O)[C@H](CCCNC(=N)N)NC(=O)[C@H](CO)NC(=O)[C@H](Cc1c[nH]cn1)NC(=O)CN(C)C(=O)CO)C(=O)N[C@@H](Cc1ccccc1)C(N)=O [Compound 28] | hi

Class for C[C@@H](O)[C@H](NC(=O)CNC(=O)[C@H](CCCNC(=N)N)NC(=O)[C@H](CO)NC(=O)[C@H](Cc1c[nH]cn1)NC(=O)CN(C)C(=O)[C@@H]1CCCN1)C(=O)N[C@@H](Cc1ccccc1)C(N)=O [Compound 36] (H-P[Sar]HSRGTF-NH2) ?
hi

Classify this compound: C[C@@H](O)[C@H](NC(=O)CNC(=O)[C@H](CCCNC(=N)N)NC(=O)[C@H](CO)NC(=O)[C@H](Cc1c[nH]cn1)NC(=O)CN(C)C(=O)[C@H](N)CCCCN)C(=O)N[C@@H](Cc1ccccc1)C(N)=O [Compound 30]
med

Record C[C@@H](O)[C@H](NC(=O)CNC(=O)[C@H](CCCNC(=N)N)NC(=O)[C@H](CO)NC(=O)[C@H](Cc1c[nH]cn1)NC(=O)CN(C)C(=O)[C@@H](N)Cc1ccccc1)C(=O)N[C@@H](Cc1ccccc1)C(N)=O [Compound 34] (H-F[Sar]HSRGTF-NH2) — which class?
med

Categorize the following entry: C[C@@H](O)[C@H](NC(=O)CNC(=O)[C@H](CCCNC(=N)N)NC(=O)[C@H](CO)NC(=O)[C@H](Cc1c[nH]cn1)NC(=O)CN(C)C(=O)[C@@H](N)CO)C(=O)N[C@@H](Cc1ccccc1)C(N)=O [Compound 35] (H-S[Sar]HSRGTF-NH2)
lo
